# Test system: NCI-H460 lung
# Procedure Details: NCI tumour cell line growth inhibition, 48 h
TGI values, listed per item

CCOC(OC1=CCCC1)C(C)[Se]c1ccccc1 (configuration not stated) ... 40.1 µM
Cc1ccc(NC(=O)CSc2nnc(Cc3ccccc3)o2)c(C)c1 ... > 100 µM
N#Cc1cc(-c2nc3cc(F)ccc3s2)ccc1N ... 17.8 µM
O=c1cc(N2CCOCC2)oc2c(-c3ccc4c(c3)OCCO4)csc12 ... 14.2 µM
COc1ccc(NC(=O)c2sc3nc(C)c(C(=O)/C=C/c4ccccc4)cc3c2N)cc1 ... 2.08 µM

Field: next molecule
Return reported TGI; argument: COC1CC(OC)C2OC(c3ccccc3)OCC2O1 (configuration not stated) > 100 µM

====

# Tested on: SF-295 CNS
# Procedure Details: NCI tumour cell line growth inhibition, 48 h
Measurement Type: TGI

CCOC(OC1=CCCC1)C(C)[Se]c1ccccc1 (configuration not stated) ... > 100 µM
CC#C[C@@]1(O)CCCCC1O (some centres not stated) ... > 100 µM
CCOC(=O)C1C=C1C(C)(C)O (configuration not stated) ... > 10 µM
CC(O)C1(CNc2cc(Cl)nc(N)n2)CCCC1 (configuration not stated) ... > 100 µM
Cc1ccc(C2C(Cl)C(=O)N2n2cnc3ccccc3c2=O)cc1 (configuration not stated) ... > 100 µM
Cc1cc(Br)ccc1NC1=CC(=O)C(=O)c2ccccc21 ... > 100 µM
CCCCCCCCCCCCCCNc1nc(C(=O)OCC)ncc1-c1ccc(C(F)(F)F)cc1 ... > 100 µM
CC(=O)N(C)C=C1C(=O)N(C)C(=O)N(C)C1=O ... > 100 µM

Return reported TGI; argument: `Cc1ccc(N=Nc2c(O)c(S(=O)(=O)O)cc3cc(S(=O)(=O)O)ccc23)c(C)c1` > 100 µM

Return reported TGI; argument: `CCOC(=O)c1cnc2oc(-c3ccc(OC)cc3)nn2c1=O` > 100 µM

Return reported TGI; argument: `O=C(O)[C@@H]1CCCN1Cc1cc2cc3c(cc2c2cc(OCc4ccccc4)ccc12)OCO3` 45 µM

Return reported TGI; argument: Nc1c(C(=O)Nc2ccccc2)sc2nc3c(cc12)C(O)CCC3 (configuration not stated) > 100 µM

====

# System: KM12 colon
# Procedure Details: NCI tumour cell line growth inhibition, 48 h; in the data active = GI50 below about 0.43 µM; inactive = the rest
Your response should consist of one outcome taken from True = active, False = inactive

Here are 3 compounds together with their reported answers.
CCC(=O)Oc1cc(/C=C/C(=O)O[C@H]2C[C@H]3CN4CCc5c([nH]c6cc(OC)ccc56)[C@@H]4C[C@@H]3[C@@H](C(=O)OC)[C@@H]2OC)ccc1OC ... False
COc1ccc2[nH]c(C(=O)N3CCN(C(=O)OCc4ccc5c(Br)cc(Br)c(O)c5n4)CC3)cc2c1 ... False
c1cc2ccc3cc2cc1CNCCN1CCNCc2ccc4ccc(cc4c2)CNCCN(CCNC3)CCNCc2ccc3ccc(cc3c2)CNCC1 ... False

For `CCCCCC/C=C\CCCCCCCCCc1cc(O)cc(OC)c1O` , which call appears in the assay record? True

For Nc1c(C(=O)Nc2ccccc2)sc2nc3c(cc12)C(O)CCC3 (configuration not stated) , which call appears in the assay record? False

For `O=[N+]([O-])[O][Sn]([O][Sn]([O][N+](=O)[O-])([c]1ccccc1)[c]1ccccc1)([c]1ccccc1)[c]1ccccc1` , which call appears in the assay record? False

For `NC(=O)[C@@H](CCC(F)(F)F)N(Cc1ccc(-c2ncon2)cc1F)S(=O)(=O)c1ccc(Cl)cc1` , which call appears in the assay record? False

====

# System: NCI-H460 lung
# Procedure Details: NCI tumour cell line growth inhibition, 48 h
log10 of TGI values, listed per item
Plainly stated, the numbers are log10 of TGI given in µM.

Some solved entries appear below for comparison.
Cc1cc2c(C(C)C)c(O)c(O)c(C=NCC3CCCN4CCCCC34)c2cc1-c1cc2c(C=NCC3CCCN4CCCCC34)c(O)c(O)c(C(C)C)c2cc1C (stereo not drawn) ... 1.59
CC(C)(C)C1CCC2c3c([nH]c4ccccc34)C3C(=O)N(c4ccc(C(=O)O)cc4)C(=O)C3C2C1 (stereo not drawn) ... 1.55
COC(=O)c1ccc([C@H]2c3[nH]c4ccccc4c3C[C@H](C(=O)OC)N2C(=O)CCl)cc1 ... 0.56

Return reported log10 of TGI; argument: `CN1CCN(Cn2nc(COc3ccc(Cl)cc3)n(/N=C/c3ccc(-c4ccc(Cl)cc4Cl)o3)c2=S)CC1` 1.54

Return reported log10 of TGI; argument: O=P(Nc1ccccc1)(Oc1ccccc1)N1CCN(c2ccccc2)CC1 (stereo not drawn) 1.52

Return reported log10 of TGI; argument: C=C1CC[C@@H]2C(C)(C)C(O)CCC2(C)C1COc1ccc2ccc(=O)oc2c1 (stereo partly drawn) 1.37

====

# Test system: HL-60(TB) leukemia
# Procedure Details: NCI tumour cell line growth inhibition, 48 h
TGI values, listed per item
The answer is to be given in µM; state only the numeric part.

CC(C)(C)c1cc(C(C)(C)C)c2c(c1O)OC(=O)CS2 ... 10.7
O=S(=O)(Cc1nc2ccccc2s1)c1nc2ccccc2s1 ... 24.2

Field: next molecule
Return reported TGI; argument: `O=C(Nc1ccc(-n2ccc3c(NC(=O)c4ccccc4)nccc32)cc1)c1cccc(C(F)(F)F)c1` 15.3

====

# Tested on: NCI/ADR-RES ovarian
# Procedure Details: NCI tumour cell line growth inhibition, 48 h
GI50 values, listed per item

Cc1ccc2nc3ccccc3c(NCc3ccccc3)c2c1 ... 2.46 µM
O=c1cc(N2CCOCC2)oc2c(-c3ccc4c(c3)OCCO4)csc12 ... 0.59 µM

Return reported GI50; argument: `O=C(Nc1ccc(-n2ccc3c(NC(=O)c4ccccc4)nccc32)cc1)c1cccc(C(F)(F)F)c1` 0.724 µM

Return reported GI50; argument: `Cc1cc(C)c(S(=O)(=O)N2CCN(c3cc4c(cc3F)c(=O)c(C(=O)O)cn4C3CC3)CC2)c(C)c1` 3.29 µM

Return reported GI50; argument: `NC(=O)[C@@H](CCC(F)(F)F)N(Cc1ccc(-c2ncon2)cc1F)S(=O)(=O)c1ccc(Cl)cc1` 47.5 µM

Return reported GI50; argument: `N#Cc1ccccc1C#C/C=C\C#Cc1cccs1` 25.4 µM

Return reported GI50; argument: `N#Cc1c(-c2ccc(Cl)cc2)cc(-c2cc(O)ccc2O)nc1N` 8.8 µM

Return reported GI50; argument: COc1ccc(C(=O)C2C(C#N)C(C#N)C3C=Cc4ccccc4N32)cc1 (centres undefined) 0.571 µM

Return reported GI50; argument: `c1cc2ccc3cc2cc1CNCCN1CCNCc2ccc4ccc(cc4c2)CNCCN(CCNC3)CCNCc2ccc3ccc(cc3c2)CNCC1` > 100 µM

====

# System: NCI-H460 lung
Measurement Type: GI50

API: value(readout= GI50, system= NCI-H460 lung, query= `COC(=O)N1c2ccc3c(nc(Cc4ccccc4)n3[C@H]3CCC[C@H](C(=O)O)C3)c2CC[C@@H]1C` ) 23.4 µM

====

# Tested on: U251 CNS
Your response should consist of one outcome taken from true for active, false for inactive

Here are 6 compounds together with their reported answers.
Cn1ccnc1C(=O)/C=C/c1ccc(C(=O)Nc2ccccc2F)cc1 ... false
COC(=O)N1c2ccc3c(nc(Cc4ccccc4)n3[C@H]3CCC[C@H](C(=O)O)C3)c2CC[C@@H]1C ... false
COc1ccc2[nH]c(C(=O)N3CCN(C(=O)OCc4ccc5c(Br)cc(Br)c(O)c5n4)CC3)cc2c1 ... false
CO/N=C(\COc1ccc2c(=O)cc(-c3ccccc3)oc2c1)c1ccc(F)cc1 ... false
COc1cc2c3c(n(CCCN(C)C)c(=O)c2cc1OC)-c1cc2c(cc1C3=O)OCO2 ... true
COc1ccc(C(=O)C2C(C#N)C(C#N)C3C=Cc4ccccc4N32)cc1 (configuration not stated) ... false

Continue with the next compound.
For `O=C(N/N=C\c1cc(Cl)ccc1O)c1ccncc1` , which call appears in the assay record? false

====

TGI values, listed per item
# Test system: KM12 colon
# Procedure Details: NCI tumour cell line growth inhibition, 48 h

Some solved entries appear below for comparison.
Cc1c(-c2ccc(O)c(O)c2)oc(=O)c2c(O)cc(O)cc12 ... 54.7 µM
Cc1ccc(NC(=O)CSc2nnc(Cc3ccccc3)o2)c(C)c1 ... > 100 µM
COC1CC(OC)C2OC(c3ccccc3)OCC2O1 (stereo not drawn) ... > 100 µM

Return reported TGI; argument: `Cc1ccc(N=Nc2c(O)c(S(=O)(=O)O)cc3cc(S(=O)(=O)O)ccc23)c(C)c1` > 100 µM

Return reported TGI; argument: `Cn1ccnc1Cn1cc(-c2cccc(-c3cn[nH]c3)c2)cn1` > 100 µM

Return reported TGI; argument: Clc1ccc(C2c3ccccc3-c3nc4ccccc4n32)cc1 (stereo not drawn) > 100 µM

Return reported TGI; argument: `N#Cc1c(-c2ccc(Cl)cc2)cc(-c2cc(O)ccc2O)nc1N` 14.9 µM

Return reported TGI; argument: C=C[C@@]1(C)CC2(C=C(CO)C(O)O2)Oc2c1c(=O)oc1cccc(C)c21 (stereo partly drawn) 33.9 µM

Return reported TGI; argument: `C[PH+](C)C.C[PH+](C)C.[Au]` 41.9 µM

Return reported TGI; argument: O=c1[nH]cnc2c1cnn2Cc1cn(COCC(O)CO)nn1 (stereo not drawn) > 100 µM

Return reported TGI; argument: `CC1=C2[C@H]3OC(=O)[C@@H](C)[C@@H]3CC[C@@]2(C)C=CC1=O` > 100 µM
